Data provenance: patent US20220380310A1

System: Human P2X4 receptor (P2X4R) (Homo sapiens)
Construct: expressed in transfected cells; host or cells: HEK-293
Sequence (Q99571 whole entry): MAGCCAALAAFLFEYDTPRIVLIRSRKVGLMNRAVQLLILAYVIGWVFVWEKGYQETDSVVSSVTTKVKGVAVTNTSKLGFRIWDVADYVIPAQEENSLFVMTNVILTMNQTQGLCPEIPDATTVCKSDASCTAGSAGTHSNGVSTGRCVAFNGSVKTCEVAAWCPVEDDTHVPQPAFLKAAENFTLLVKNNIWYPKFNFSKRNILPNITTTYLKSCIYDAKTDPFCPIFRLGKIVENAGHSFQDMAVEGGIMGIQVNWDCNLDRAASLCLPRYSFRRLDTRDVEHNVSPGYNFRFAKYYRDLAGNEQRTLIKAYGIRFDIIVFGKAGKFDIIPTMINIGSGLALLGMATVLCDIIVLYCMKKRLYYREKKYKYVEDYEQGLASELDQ
Assay procedure: Receptor-mediated calcium entrance assay (Calcium Assay), P2X4R transfected HEK-293 cells
Assay type: cell-based
Condition: HEK293, compound at 5 μM, 1 mM ATP stimulus, read-out: Percentage of activity remains in the presence of the compound at 5 μM, P2X4R (Calcium Assay)
Please use 1 for remaining activity at 5 µM under 70% and -1 for everything else, ties included.

For orientation, consider the following solved cases.
Compound	System	Cat
O=C(CCc1ccccc1)NC1CCCN(S(=O)(=O)c2ccc(N3CCC(F)(F)CC3)cc2)C1 (centres unmarked)	Human P2X4 receptor (P2X4R) (Homo sapiens)	-1
O=C(CCc1ccccc1)N1CCN(S(=O)(=O)c2ccc(N3CCCCC3)cc2)CC1	Human P2X4 receptor (P2X4R) (Homo sapiens)	1
CC(C)S(=O)(=O)c1ccc(N2CCCC(NC(=O)CCc3ccccc3)C2)cc1 (centres unmarked)	Human P2X4 receptor (P2X4R) (Homo sapiens)	-1

is_below(remaining activity at 5 µM, 70%) for CCCCNc1ccc(S(=O)(=O)N2CCC(C(=O)O)CC2)cc1 ?
1

----------
System: P2X2R (Homo sapiens)
Construct: expressed in transfected cells; host or cells: HEK-293
Sequence (Q9UBL9 whole entry): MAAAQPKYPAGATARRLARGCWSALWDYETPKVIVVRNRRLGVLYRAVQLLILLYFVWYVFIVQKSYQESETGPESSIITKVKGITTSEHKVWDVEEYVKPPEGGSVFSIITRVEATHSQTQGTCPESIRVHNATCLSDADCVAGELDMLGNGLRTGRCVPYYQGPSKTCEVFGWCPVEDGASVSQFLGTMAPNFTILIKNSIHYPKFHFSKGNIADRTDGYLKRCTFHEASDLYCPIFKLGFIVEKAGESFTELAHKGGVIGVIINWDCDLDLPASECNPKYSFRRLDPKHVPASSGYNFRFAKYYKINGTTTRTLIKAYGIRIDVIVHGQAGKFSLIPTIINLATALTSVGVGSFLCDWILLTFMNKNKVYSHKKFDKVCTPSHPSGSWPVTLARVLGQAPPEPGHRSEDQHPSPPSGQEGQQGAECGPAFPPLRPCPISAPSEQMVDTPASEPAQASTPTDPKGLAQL
Assay procedure: Receptor-mediated calcium entrance assay (Calcium Assay), P2X2R
Format: cell-based
Condition: compound at 5 μM, read-out: Percentage of activity remains in the presence of the compound at 5 μM, P2X2R (Calcium Assay)
Where a name gives a salt, the structure may show the parent alone.
Property label: remaining activity at 5 µM (%)
Answer format: numeric, % implied, no suffix.

Some molecules with recorded remaining activity at 5 µM:
Molecule	remaining activity at 5 µM (%)
O=C(CCc1ccccc1)NC1CCCN(S(=O)(=O)Cc2ccc(Br)cc2)C1 (stereo not drawn)	94.6
O=C(CCc1ccccc1)N1CCNCC1 [#29, hydrochloride]	83.3
O=C(NCCc1ccccc1)C1CCN(S(=O)(=O)c2ccc(N3CCCCC3)cc2)CC1	68.1
O=C(CCc1ccccc1)NC1CCCN(c2ccc(S(=O)(=O)Nc3ccccc3)cc2)C1 (stereo not drawn)	67.2
O=C(CCc1ccccc1)NC1CCCN(S(=O)(=O)c2ccc(OCc3ccccc3)cc2)C1 (stereo not drawn)	83.7

Tell us which remaining activity at 5 µM value is on record for CC(C)(C)OC(=O)N1CCC(C2CCN(c3ccc(S(=O)(=O)N4CCCC(NC(=O)CCc5ccccc5)C4)cc3)CC2)CC1 (stereo not drawn)
61.1

Tell us which remaining activity at 5 µM value is on record for CC(C)(C)OC(=O)N1CCN(c2ccc(S(=O)(=O)N3CCC(C(=O)NCCc4ccccc4)CC3)cc2)CC1
85.8

Tell us which remaining activity at 5 µM value is on record for O=C(CCc1ccccc1)NC1CCCN(c2ccc(S(=O)(=O)N3CCCC3)cc2)C1 (stereo not drawn)
52.7

Tell us which remaining activity at 5 µM value is on record for O=C(NCCc1ccccc1)C1CCCN(S(=O)(=O)c2ccc(N3CCCC3)cc2)C1 (stereo not drawn)
70
